Below: a set of entries, each annotated with reported Signal-to-Background (Ratio of Relative Luminescence Units).
Measurement target: T1, Epidermal growth factor receptor 2 (HER2 or ErbB-2) on HER2+ SKOV3 cells (human, UniProt P04626 23-1255)
T1 construct: whole, on cells; Only claim 72 calls it 'human epidermal growth factor receptor 2 (HER2)'
Protocol summary: split-luciferase complementation on HER2+ SKOV3 cells (lysates, washed); paired with TrasH-β9
The reply should be a number in ratio, with the unit left off.

β10*-L73J (Fab, V domains shown, Fab fusion expressed in E. coli, used as lysate; also called 73J Fab with β10* at the N-terminus of the light chain) VH: EVQLVESGGGLVQPGGSLRLSCAASGFNLYSSYIHWVRQAPGKGLEWVASIYPYSSYTSYADSVKGRFTISADTSKNTAYLQMNSLRAEDTAVYYCARYYGFAMDYWGQGTLVTVSS VL: DIQMTQSPSSLSASVGDRVTITCRASQSVSSAVAWYQQKPGKAPKLLIYSASSLYSGVPSRFSGSRSGTDFTLTISSLQPEDFATYYCQQGYYYPFTFGQGTKVEIKR :: 6

Report Signal-to-Background (Ratio of Relative Luminescence Units) for 73JH-β10* (Fab, V domains shown, Fab fusion expressed in E. coli, used as lysate; also called 73J Fab with β10* at the C-terminus of the heavy chain) VH: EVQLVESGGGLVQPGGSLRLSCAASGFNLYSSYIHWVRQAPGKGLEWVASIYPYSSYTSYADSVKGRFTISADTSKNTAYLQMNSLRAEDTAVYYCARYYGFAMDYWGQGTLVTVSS VL: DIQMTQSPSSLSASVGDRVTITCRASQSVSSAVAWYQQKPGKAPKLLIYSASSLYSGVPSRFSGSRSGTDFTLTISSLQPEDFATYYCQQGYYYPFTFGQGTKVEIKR
25

Report Signal-to-Background (Ratio of Relative Luminescence Units) for β10*-9.29 (designed binder, DARPin fusion expressed in E. coli, used as lysate; also called DARPin 9.29 with N-terminal β10*) MVSGWRLFKKISGGGSGHHHHHHHHGGGSGGSDLGKKLLEAARAGQDDEVRILMANGADVNAHDFYGITPLHLAANFGHLEIVEVLLKHGADVNAFDYDNTPLHLAADAGHLEIVEVLLKYGADVNASDRDGHTPLHLAAREGHLEIVEVLLKNGADVNAQDKFGKTPFDLAIDNGNEDIAEVLQKAA
5

Report Signal-to-Background (Ratio of Relative Luminescence Units) for β10*-G3 (designed binder, DARPin fusion expressed in E. coli, used as lysate; also called DARPin G3 with N-terminal β10*) MVSGWRLFKKISGGGSGHHHHHHHHGGGSGDLGKKLLEAARAGQDDEVRILMANGADVNAKDEYGLTPLYLATAHGHLEIVEVLLKNGADVNAVDAIGFTPLHLAAFIGHLEIAEVLLKHGADVNAQDKFGKTAFDISIGNGNEDLAEILQKLN
15
